system: SW480 colon carcinoma cells; experiment: Cell viability assay (CellTiter-Glo); details: Homo sapiens, SW480, read-out: percent inhibition at 10 μM
Reported inhibition at 10 µM values for a set of molecules

[
  {
    "molecule": "Cc1ncc(-c2ccc3cnc(NC(=O)N4CCC(N5CCOCC5)CC4)cc3n2)o1 [Compound 566]",
    "inhibition at 10 µM": "19.7%"
  },
  {
    "molecule": "Cn1cncc1-c1cnc2cnc(NC(=O)c3ccc(F)cc3)cc2c1 [Compound 3168]",
    "inhibition at 10 µM": "25.8%"
  },
  {
    "molecule": "CN1CCCN(c2cc(C(=O)Nc3cc4cc(-c5cn(C)nn5)cnc4cn3)ccn2)CC1 [Compound 3099]",
    "inhibition at 10 µM": "29.6%"
  },
  {
    "molecule": "Cn1cncc1-c1ccc2cnc(NC(=O)C3CCC(F)(F)CC3)nc2c1 [Compound 1306]",
    "inhibition at 10 µM": "43.7%"
  }
]
